system: Plasma; assay: Drug level in human plasma assessed as radioactivity treated with [14C]SB-649868 at 30 mg, po single dose after 24 hrs by HPLC-MSn analysis; assay type: ADME, organism-based; set-up: dosed compound name [14C]SB-649868; conditions: in vivo
EXPERIMENTAL_ENDPOINT: Compound recovery (%)

COMPOUND	RESULT_UNITS	Compound recovery
Cc1nc(C(=O)N2CCCC[C@H]2CN)c(-c2ccc(F)cc2)s1	%	1.9

a = Cc1nc(C(=O)N2CCCC[C@H]2CN2C(=O)c3cccc(O)c3CC2O)c(-c2ccc(F)cc2)s1 (some centres undefined)
b = Cc1nc(C(=O)N2CCCC[C@H]2CNC(=O)c2cccc3occc23)c(-c2ccc(F)cc2)s1
c = Cc1nc(C(=O)N2CCCC[C@H]2CNC(=O)c2cccc(O)c2CC(=O)O)c(-c2ccc(F)cc2)s1
List these items ordered by Compound recovery, big to small. // list labels; follow requested order
a, b, c
(a: 19.3%, b: 9.8%, c: 4.2%)

* * *

system: Plasma; experiment: Drug level in human plasma assessed as radioactivity treated with [14C]SB-649868 at 30 mg, po single dose after 12 hrs by HPLC-MSn analysis; format: ADME, organism-based; design: dosed compound name [14C]SB-649868; conditions: in vivo
EXPERIMENTAL_ENDPOINT: Compound recovery (%)

Field: example entries. Status: answers known.
MOLECULE	TGT	MEASURED_RESULT
Cc1nc(C(=O)N2CCCC[C@H]2CNC(=O)c2cccc(O)c2CC(=O)O)c(-c2ccc(F)cc2)s1	Plasma	6.7
Cc1nc(C(=O)N2CCCC[C@H]2CN)c(-c2ccc(F)cc2)s1	Plasma	1

1 = Cc1nc(C(=O)N2CCCC[C@H]2CN2C(=O)c3cccc(O)c3CC2O)c(-c2ccc(F)cc2)s1 (some centres undefined)
2 = Cc1nc(C(=O)N2CCCC[C@H]2CNC(=O)c2cccc3occc23)c(-c2ccc(F)cc2)s1
Task for the reader: decide whether 1 or 2 has the larger Compound recovery. # respond with the chosen item's label
2

* * *

test system: Plasma; test: Drug level in human plasma assessed as radioactivity treated with [14C]SB-649868 at 30 mg, po single dose after 3 hrs by HPLC-MSn analysis; assay type: ADME, organism-based; parameters: dosed compound name [14C]SB-649868; conditions: in vivo
EXPERIMENTAL_ENDPOINT: Compound recovery (%)

I = Cc1nc(C(=O)N2CCCC[C@H]2CNC(=O)c2cccc3occc23)c(-c2ccc(F)cc2)s1
II = Cc1nc(C(=O)N2CCCC[C@H]2CN)c(-c2ccc(F)cc2)s1
III = Cc1nc(C(=O)N2CCCC[C@H]2CN2C(=O)c3cccc(O)c3CC2O)c(-c2ccc(F)cc2)s1 (some centres undefined)
Number of compounds to sort: 3. Sort criterion: Compound recovery, ascending. // list labels; follow requested order
II, III, I

* * *

test: Elimination half life in dog; assay type: ADME, organism-based, Canis lupus familiaris; parameters: dosed compound name [14C]SB-649868; conditions: in vivo, read-out: Compound recovery
EXPERIMENTAL_ENDPOINT: half-life

Fill blank: measured half-life of the molecule `Cc1nc(C(=O)N2CCCC[C@H]2CNC(=O)c2cccc3occc23)c(-c2ccc(F)cc2)s1` is ____.
< 1 h

* * *

tested on: Plasma; assay: Drug level in human plasma assessed as radioactivity treated with [14C]SB-649868 at 30 mg, po single dose after 48 hrs by HPLC-MSn analysis; assay type: ADME, organism-based; design: dosed compound name [14C]SB-649868; details: in vivo
EXPERIMENTAL_ENDPOINT: Compound recovery (%)

I = Cc1nc(C(=O)N2CCCC[C@H]2CN2C(=O)c3cccc(O)c3CC2O)c(-c2ccc(F)cc2)s1 (some centres undefined)
II = Cc1nc(C(=O)N2CCCC[C@H]2CN)c(-c2ccc(F)cc2)s1
Which has the smaller recorded Compound recovery, I or II ? # respond with the chosen item's label
II
(II: 3%, I: 15.1%)

* * *

assay: Terminal phase half life in human at 10 to 60 mg; type: ADME, organism-based; design: dosed compound name [14C]SB-649868; conditions: in vivo, read-out: Compound recovery (converted)
EXPERIMENTAL_ENDPOINT: half-life (h)
// note: answer is a bare numeric in h

Fill blank: measured half-life of the compound Cc1nc(C(=O)N2CCCC[C@H]2CNC(=O)c2cccc3occc23)c(-c2ccc(F)cc2)s1 [SB-649868] is ____.
2.2

* * *

assay: Drug level in human feces treated with [14C]SB-649868 at 30 mg, po single dose by HPLC-MSn analysis; details: in vivo
EXPERIMENTAL_ENDPOINT: Compound recovery (%)

Field: example entries. Status: answers known.
COMPOUND	MEASURED_RESULT
Cc1nc(C(=O)N2CCCC[C@H]2Cn2ccc3c(O)cccc3c2=O)c(-c2ccc(F)cc2)s1	0.7
Cc1nc(C(=O)N2CCCC[C@H]2CN2C(=O)c3cccc(O)c3CC2O)c(-c2ccc(F)cc2)s1 (stereo partly specified)	2.6
Cc1nc(C(=O)N[C@@H](CCCC(=O)O)CNC(=O)c2cccc3occc23)c(-c2ccc(F)cc2)s1	1.1

a = Cc1nc(C(=O)N2CCCC[C@H]2CN)c(-c2ccc(F)cc2)s1
b = Cc1nc(C(=O)N2CCCC[C@H]2CNC(=O)c2cccc(O)c2CC(=O)O)c(-c2ccc(F)cc2)s1
Which has the smaller recorded Compound recovery, a or b ? # respond with the chosen item's label
a
(a: 1.5%, b: 10.3%)

* * *

assay: Drug level in human urine treated with [14C]SB-649868 at 30 mg, po single dose after 0 to 72 hrs by HPLC-MSn analysis; conditions: in vivo, 0-72 h
EXPERIMENTAL_ENDPOINT: Compound recovery (%)

Field: example entries. Status: answers known.
COMPOUND	RESULT_UNITS	MEASURED_RESULT
Cc1nc(C(=O)N2CCCC[C@H]2CN)c(-c2ccc(F)cc2)s1	%	0.6
Cc1nc(C(=O)N2CCCC[C@H]2CN2C(=O)c3cccc(O)c3CC2O)c(-c2ccc(F)cc2)s1 (some centres not stated)	%	0.2

I = Cc1nc(C(=O)N2CCCC[C@H]2CNC(=O)c2cccc3oc(O)cc23)c(-c2ccc(F)cc2)s1
II = Cc1nc(C(=O)N2CCCC[C@H]2CNC(=O)c2cccc(O)c2CC(=O)O)c(-c2ccc(F)cc2)s1
Task for the reader: decide whether I or II has the larger Compound recovery. # respond with the chosen item's label
II
(II: 1.5%, I: 0.6%)
